Cited source for all entries: patent US6479435B1

# System: upland rice (Oryza sp., var.Tebonnet, RICE)
# Assay remarks: Post-emerge greenhouse test, crop damage rating
# Assay type: in vivo
# Condition parameters: rate 500 g ai/ha, 14 days after application, scale 0-100
Attribute measured: crop damage rating RICE

INSERT INTO measurements (molecule_smiles, attribute_measured, recorded_measurement) VALUES
  ('O=c1n(-c2cc(Oc3nc(Cl)ccc3C(F)(F)F)c(Cl)cc2F)c(=S)n2n1CCCC2', 'crop damage rating RICE', 5),
  ('O=c1n(-c2cc(Oc3nccc(C(F)(F)F)n3)c(Cl)cc2F)c(=S)n2n1CCCC2', 'crop damage rating RICE', 80),
  ('Nn1c(C(F)(F)F)cc(=O)n(-c2cc(Oc3cccc(C(F)(F)F)c3)c(Cl)cc2F)c1=O', 'crop damage rating RICE', 35),
  ('CC(=O)Nc1ccc(Oc2cc(-n3c(=O)n4n(c3=S)CCCC4)c(F)cc2Cl)c(C(F)(F)F)c1', 'crop damage rating RICE', 0);

----------
# Tested on: field corn (Zea mays L., var. Dekalb 535, CORN)
# Assay remarks: Pre-emerge greenhouse test, crop damage rating
# Format: in vivo
# Condition parameters: 125 g ai/ha, 14 days after application, rating scale 0-100
Attribute measured: crop damage rating CORN

INSERT INTO measurements (molecule_smiles, recorded_measurement) VALUES
  ('Cn1nc(-c2cc(Oc3cccc(F)n3)c(Cl)cc2F)c(Cl)c1C(F)(F)F', 20),
  ('Cn1c(C(F)(F)F)nc(-c2cc(Oc3ncccc3[N+](=O)[O-])c(Cl)cc2F)c1Cl', 0),
  ('Cn1nc(-c2cc(Oc3ccc(C#N)cn3)c(Cl)cc2F)c(Cl)c1C(F)(F)F', 10),
  ('Nc1ccc(Oc2cc(-n3c(=O)n4n(c3=S)CCCC4)c(F)cc2Cl)c(C(F)(F)F)c1', 0),
  ('N#Cc1cccnc1Oc1cc(-n2nnn(CCCF)c2=O)c(F)cc1Cl', 0),
  ('N#Cc1ccccc1Oc1cc(-n2c(=O)n3n(c2=S)CCCC3)c(F)cc1Cl', 0);

----------
Item-by-item account of pest or weed control at 63 g/ha
# System: redroot pigweed (Amaranthus retroflexus, AMARE)
# Assay remarks: Post-emerge greenhouse herbicide test, phytotoxicity rating
# Format: in vivo
# Condition parameters: Amaranthus retroflexus, post-emergence, 336 h, rate 63 g ai/ha, 14 days after application, scale 0-100
# Protocol: A standard greenhouse herbicide activity screening system was used to evaluate the herbicidal efficacy and crop safety of these test compounds. […] At 14 days after application of the test materials, phytotoxicity ratings were recorded. […]
Attribute measured: pest or weed control at 63 g/ha (%)

INSERT INTO results (molecule, recorded_measurement) VALUES
  ('Nn1c(C(F)(F)F)cc(=O)n(-c2cc(Oc3nc(F)c(F)cc3F)c(Cl)cc2F)c1=O [Compound 9-6]', 100),
  ('Nn1c(C(F)(F)F)cc(=O)n(-c2cc(Oc3ccc(Br)cn3)c(Cl)cc2F)c1=O [Compound 9-2]', 100),
  ('Nn1c(C(F)(F)F)cc(=O)n(-c2cc(Oc3cccc(Cl)n3)c(Cl)cc2F)c1=O [Compound 9-5]', 100),
  ('O=c1n(-c2cc(Oc3ncccc3C(F)(F)F)c(Cl)cc2F)c(=S)n2n1CCCC2 [Compound 8-18]', 100),
  ('Nn1c(C(F)(F)F)cc(=O)n(-c2cc(Oc3ccccc3C(F)(F)F)c(Cl)cc2F)c1=O [Compound 9-24]', 100),
  ('Nn1c(C(F)(F)F)cc(=O)n(-c2cc(Oc3ccc([N+](=O)[O-])cn3)c(Cl)cc2F)c1=O [Compound 9-11]', 100),
  ('Nn1c(C(F)(F)F)cc(=O)n(-c2cc(Oc3ccccc3[N+](=O)[O-])c(Cl)cc2F)c1=O [Compound 9-21]', 100),
  ('Cc1nsc(Oc2cc(-n3c(=O)cc(C(F)(F)F)n(N)c3=O)c(F)cc2Cl)c1[N+](=O)[O-] [Compound 9-14]', 100);

----------
A collection of compounds and their measured IPOHE phytotoxicity rating
# Test system: ivyleaf morningglory (Ipomoea hederacea, IPOHE)
# Assay remarks: Pre-emerge greenhouse herbicide test, phytotoxicity rating
# Assay type: in vivo
# Condition parameters: Rate 500 g al/ha, 14 days after application, rating scale 0-100
Attribute measured: IPOHE phytotoxicity rating

INSERT INTO assay_data (compound, target_or_system, recorded_measurement) VALUES
  ('O=c1n(-c2cc(Oc3cccc(Cl)n3)c(Cl)cc2F)c(=S)n2n1CCCC2 [Compound 8-26]', 'ivyleaf morningglory (Ipomoea hederacea, IPOHE)', 0),
  ('O=c1n(-c2cc(Oc3cccc(F)n3)c(Cl)cc2F)c(=S)n2n1CCCC2 [Compound 8-25]', 'ivyleaf morningglory (Ipomoea hederacea, IPOHE)', 20),
  ('CC(=O)Nc1ccc(Oc2cc(-n3c(=O)n4n(c3=S)CCCC4)c(F)cc2Cl)c(C(F)(F)F)c1 [Compound 8-16]', 'ivyleaf morningglory (Ipomoea hederacea, IPOHE)', 0),
  ('O=c1n(-c2cc(Oc3ccc([N+](=O)[O-])cn3)c(Cl)cc2F)c(=S)n2n1CCCC2 [Compound 8-23]', 'ivyleaf morningglory (Ipomoea hederacea, IPOHE)', 60),
  ('O=c1n(-c2cc(Oc3nccc(Cl)n3)c(Cl)cc2F)c(=S)n2n1CCCC2 [Compound 8-31]', 'ivyleaf morningglory (Ipomoea hederacea, IPOHE)', 70),
  ('N#Cc1cccnc1Oc1cc(-n2c(=O)n3n(c2=S)CCCC3)c(F)cc1Cl [Compound 8-20]', 'ivyleaf morningglory (Ipomoea hederacea, IPOHE)', 100),
  ('O=c1n(-c2cc(Oc3nc(F)c(F)cc3F)c(Cl)cc2F)c(=S)n2n1CCCC2 [Compound 8-28]', 'ivyleaf morningglory (Ipomoea hederacea, IPOHE)', 40),
  ('Nc1ccc(Oc2cc(-n3c(=O)n4n(c3=S)CCCC4)c(F)cc2Cl)nc1 [Compound 8-24]', 'ivyleaf morningglory (Ipomoea hederacea, IPOHE)', 70);

----------
# Test system: ivyleaf morningglory (Ipomoea hederacea, IPOHE)
# Assay remarks: Post-emerge greenhouse herbicide test, phytotoxicity rating
# Assay type: in vivo
# Condition parameters: rate 63 g ai/ha, 14 days after application, scale 0-100
Attribute measured: phytotoxicity rating IPOHE

INSERT INTO assay_data (molecule_smiles, recorded_measurement) VALUES
  ('Nc1ccc(Oc2cc(-n3c(=O)n4n(c3=S)CCCC4)c(F)cc2Cl)nc1', 70),
  ('CC(C)S(=O)(=O)c1cccnc1Oc1cc(-n2c(=O)n3n(c2=S)CCCC3)c(F)cc1Cl', 95),
  ('O=c1n(-c2cc(Oc3nc(Cl)ccc3C(F)(F)F)c(Cl)cc2F)c(=S)n2n1CCCC2', 50);

----------
# System: ivyleaf morningglory (Ipomoea hederacea, IPOHE)
# Assay remarks: Pre-emerge greenhouse herbicide test, phytotoxicity rating
# Assay type: in vivo
# Condition parameters: Ipomoea, pre-emergence, 336 h, Rate 125 g al/ha, 14 days after application, rating scale 0-100
# Procedure: A standard greenhouse herbicide activity screening system was used to evaluate the herbicidal efficacy and crop safety of these test compounds. […] At 14 days after application of the test materials, phytotoxicity ratings were recorded. […]
Attribute measured: pest or weed control at 125 g/ha (%)

INSERT INTO results (molecule_smiles, attribute_measured, units_symbol, recorded_measurement) VALUES
  ('Nn1c(C(F)(F)F)cc(=O)n(-c2cc(Oc3cc([N+](=O)[O-])cc(C(F)(F)F)c3)c(Cl)cc2F)c1=O', 'pest or weed control at 125 g/ha', '%', 0),
  ('Nn1c(C(F)(F)F)cc(=O)n(-c2cc(Oc3cc(C(F)(F)F)ccn3)c(Cl)cc2F)c1=O', 'pest or weed control at 125 g/ha', '%', 95),
  ('Nn1c(C(F)(F)F)cc(=O)n(-c2cc(Oc3ccccc3)c(Cl)cc2F)c1=O', 'pest or weed control at 125 g/ha', '%', 100),
  ('Nn1c(C(F)(F)F)cc(=O)n(-c2cc(Oc3ncccc3[N+](=O)[O-])c(Cl)cc2F)c1=O', 'pest or weed control at 125 g/ha', '%', 100),
  ('Nn1c(C(F)(F)F)cc(=O)n(-c2cc(Oc3ccc(Br)cn3)c(Cl)cc2F)c1=O', 'pest or weed control at 125 g/ha', '%', 0),
  ('Nn1c(C(F)(F)F)cc(=O)n(-c2cc(Oc3ccccn3)c(Cl)cc2F)c1=O', 'pest or weed control at 125 g/ha', '%', 100),
  ('O=c1n(-c2cc(Oc3ncccn3)c(Cl)cc2F)c(=S)n2n1CCCC2', 'pest or weed control at 125 g/ha', '%', 100),
  ('Nn1c(C(F)(F)F)cc(=O)n(-c2cc(Oc3nc(F)c(F)cc3F)c(Cl)cc2F)c1=O', 'pest or weed control at 125 g/ha', '%', 90);
